# test_protocol: Clearance in male CD-1 mouse at 4 mg/kg, iv by LC-MS/MS analysis
# Type: ADME, organism-based
# test_settings: in vivo
measurement_type: clearance (mL/min/kg)
Report as a plain number; the unit mL/min/kg is understood.

input: Look up and report measured clearance for this entry: CC(C)[C@@H]1NC(=O)[C@@H](Cc2ccc(O)cc2)NC(=O)CC[C@@H](C(N)=O)NC(=O)[C@@H]2CCCN2C(=O)[C@@H]2CCCN2C(=O)C2CSc3c(F)c(F)c(c(F)c3F)-c3c(F)c(F)c(c(F)c3F)SC[C@H](NC1=O)C(=O)N[C@@H](Cc1ccccc1)C(=O)N[C@@H](Cc1c[nH]cn1)C(=O)N[C@@H]([C@@H](C)O)C(=O)N[C@@H]([C@@H](C)O)C(=O)N[C@@H]([C@@H](C)O)C(=O)N1CCC[C@H]1C(=O)N[C@@H](Cc1ccccc1)C(=O)N2
output: 26.5
